# experiment.notes: self-splicing fitness, log relative to wild type (ln ratio); higher = more splicing; Tetrahymena group I intron in knt gene, E. coli kanamycin selection, DiMSum; sequences stand for … in CUCUCU…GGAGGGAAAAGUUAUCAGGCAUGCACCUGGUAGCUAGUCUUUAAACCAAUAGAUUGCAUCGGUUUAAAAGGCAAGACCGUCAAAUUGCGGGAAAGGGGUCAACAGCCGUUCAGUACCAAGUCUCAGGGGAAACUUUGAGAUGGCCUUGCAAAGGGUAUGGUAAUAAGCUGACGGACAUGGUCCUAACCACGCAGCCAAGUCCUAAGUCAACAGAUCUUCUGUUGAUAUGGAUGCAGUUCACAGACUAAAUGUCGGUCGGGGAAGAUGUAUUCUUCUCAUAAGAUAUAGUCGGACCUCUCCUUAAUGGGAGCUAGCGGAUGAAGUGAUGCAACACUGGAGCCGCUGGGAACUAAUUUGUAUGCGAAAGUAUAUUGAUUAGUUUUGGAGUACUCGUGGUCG;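 further: selection with 25 µg/mL kanamycin versus none on LB agar overnight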
# run.conditions: 30 °C
endpoint: self-splicing fitness (ln)
Enter a number only.

Look over these answered cases.
Lookup: Which measured self-splicing fitness (ln) value corresponds to CACGAGCAAUAUUACGUAAU ?
Found: -3.8

Lookup: Which measured self-splicing fitness (ln) value corresponds to UCAUAGCAAUAUUACGAUAG ?
Found: -3.22

Lookup: Which measured self-splicing fitness (ln) value corresponds to CUUAAGCAAUAUUACGAGUC ?
Found: -3.23

Continuing:
Lookup: Which measured self-splicing fitness (ln) value corresponds to UUGUAGCAAUAUUACGGUGC ?
Found: -2.37

Lookup: Which measured self-splicing fitness (ln) value corresponds to GCGGAGCAAUAUUACGGGAA ?
Found: -2.13

Lookup: Which measured self-splicing fitness (ln) value corresponds to GCAGAGCAAUAUUACGGCGU ?
Found: -0.715

Lookup: Which measured self-splicing fitness (ln) value corresponds to GAAGAGCAAUAUUACGAUAU ?
Found: -4.88

Lookup: Which measured self-splicing fitness (ln) value corresponds to CCGCAGCAAUAUUACGCUAG ?
Found: -1.53

Lookup: Which measured self-splicing fitness (ln) value corresponds to CGGAAGCAAUAUUACGUUCA ?
Found: -0.293

Lookup: Which measured self-splicing fitness (ln) value corresponds to CUUUAGCAAUAUUACGGGGG ?
Found: -4.05

Lookup: Which measured self-splicing fitness (ln) value corresponds to UUCCAGCAAUAUUACGGCCA ?
Found: -1.08

====

# experiment.notes: self-splicing fitness, log relative to wild type (ln ratio); higher = more splicing; Tetrahymena group I intron in knt gene, E. coli kanamycin selection, DiMSum; sequences stand for … in CUCUCU…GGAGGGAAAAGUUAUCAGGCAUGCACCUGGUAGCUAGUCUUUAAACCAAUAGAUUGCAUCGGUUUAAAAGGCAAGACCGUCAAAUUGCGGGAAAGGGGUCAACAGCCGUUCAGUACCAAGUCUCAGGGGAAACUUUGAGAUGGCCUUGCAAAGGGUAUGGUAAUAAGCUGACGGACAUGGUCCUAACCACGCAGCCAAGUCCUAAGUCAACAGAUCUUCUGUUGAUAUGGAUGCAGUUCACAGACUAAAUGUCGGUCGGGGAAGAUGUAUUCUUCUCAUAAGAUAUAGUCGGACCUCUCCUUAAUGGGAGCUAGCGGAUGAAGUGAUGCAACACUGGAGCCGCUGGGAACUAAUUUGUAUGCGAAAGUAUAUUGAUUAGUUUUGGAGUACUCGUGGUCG
# run.conditions: 30 °C
endpoint: self-splicing fitness (ln)
Enter a number only.

Look over these answered cases.
Lookup: Which measured self-splicing fitness (ln) value corresponds to GAGUAGCAAUAUUACGUUGU ?
Found: -2.19

Lookup: Which measured self-splicing fitness (ln) value corresponds to UCAAAGCAAUAUUACGACUU ?
Found: -4

Lookup: Which measured self-splicing fitness (ln) value corresponds to CUCGAGCAAUAUUACGAAAA ?
Found: -1.93

Lookup: Which measured self-splicing fitness (ln) value corresponds to CUGUAGCAAUAUUACGGUGU ?
Found: -3.41

Lookup: Which measured self-splicing fitness (ln) value corresponds to AUAUAGCAAUAUUACGCAUU ?
Found: -3.04

Lookup: Which measured self-splicing fitness (ln) value corresponds to CCGUAGCAAUAUUACGUAGG ?
Found: -3.19

Continuing:
Lookup: Which measured self-splicing fitness (ln) value corresponds to UCCCAGCAAUAUUACGCCGG ?
Found: -2.84

Lookup: Which measured self-splicing fitness (ln) value corresponds to ACUGAGCAAUAUUACGACUG ?
Found: -3.2

Lookup: Which measured self-splicing fitness (ln) value corresponds to UCCAAGCAAUAUUACGGUUU ?
Found: -3.75

Lookup: Which measured self-splicing fitness (ln) value corresponds to CAUAAGCAAUAUUACGAGUA ?
Found: -2.34

Lookup: Which measured self-splicing fitness (ln) value corresponds to AUAAAGCAAUAUUACGUUAC ?
Found: -2.55

Lookup: Which measured self-splicing fitness (ln) value corresponds to GAAAAGCAAUAUUACGCUUU ?
Found: -3.39

Lookup: Which measured self-splicing fitness (ln) value corresponds to UCUUAGCAAUAUUACGGGAG ?
Found: -2.63

Lookup: Which measured self-splicing fitness (ln) value corresponds to CAAAAGCAAUAUUACGCCAA ?
Found: -3.4

Lookup: Which measured self-splicing fitness (ln) value corresponds to GUAGAGCAAUAUUACGCCUU ?
Found: -0.0606

Lookup: Which measured self-splicing fitness (ln) value corresponds to ACGAAGCAAUAUUACGAGAC ?
Found: -2.39

Lookup: Which measured self-splicing fitness (ln) value corresponds to UUCGAGCAAUAUUACGCUUA ?
Found: -2.79

Lookup: Which measured self-splicing fitness (ln) value corresponds to ACGUAGCAAUAUUACGGACA ?
Found: -1.1

Lookup: Which measured self-splicing fitness (ln) value corresponds to UAUAAGCAAUAUUACGUAUG ?
Found: -1.31

Lookup: Which measured self-splicing fitness (ln) value corresponds to CUCCAGCAAUAUUACGGAUA ?
Found: -1.82

====

# experiment.notes: self-splicing fitness, log relative to wild type (ln ratio); higher = more splicing; Tetrahymena group I intron in knt gene, E. coli kanamycin selection, DiMSum; sequences stand for … in CUCUCU…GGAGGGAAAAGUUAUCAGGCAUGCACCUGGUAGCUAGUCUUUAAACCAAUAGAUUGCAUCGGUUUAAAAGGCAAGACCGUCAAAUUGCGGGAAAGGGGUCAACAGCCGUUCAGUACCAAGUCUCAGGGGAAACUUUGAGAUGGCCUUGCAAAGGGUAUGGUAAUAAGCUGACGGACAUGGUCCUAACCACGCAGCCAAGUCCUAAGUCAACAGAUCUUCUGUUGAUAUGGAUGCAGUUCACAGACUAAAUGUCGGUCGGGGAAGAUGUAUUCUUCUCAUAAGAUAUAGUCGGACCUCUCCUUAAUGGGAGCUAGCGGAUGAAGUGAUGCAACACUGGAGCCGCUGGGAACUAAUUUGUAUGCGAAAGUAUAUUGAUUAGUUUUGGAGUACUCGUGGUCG
# run.conditions: 37 °C
The label depends only on self-splicing fitness (ln): condition met if it is at least -1, condition not met if it is smaller.

Lookup: Identify whether the reported self-splicing fitness (ln) of the following sequence is -1 or greater: CGGCAGCAAUAUUACGCAUG
Found: condition not met

Shifting focus to the sequence that follows.
Lookup: Identify whether the reported self-splicing fitness (ln) of the following sequence is -1 or greater: AACCAGCAAUAUUACGGGUA
Found: condition met

====

# experiment.notes: self-splicing fitness, log relative to wild type (ln ratio); higher = more splicing; Tetrahymena group I intron in knt gene, E. coli kanamycin selection, DiMSum; sequences stand for … in CUCUCU…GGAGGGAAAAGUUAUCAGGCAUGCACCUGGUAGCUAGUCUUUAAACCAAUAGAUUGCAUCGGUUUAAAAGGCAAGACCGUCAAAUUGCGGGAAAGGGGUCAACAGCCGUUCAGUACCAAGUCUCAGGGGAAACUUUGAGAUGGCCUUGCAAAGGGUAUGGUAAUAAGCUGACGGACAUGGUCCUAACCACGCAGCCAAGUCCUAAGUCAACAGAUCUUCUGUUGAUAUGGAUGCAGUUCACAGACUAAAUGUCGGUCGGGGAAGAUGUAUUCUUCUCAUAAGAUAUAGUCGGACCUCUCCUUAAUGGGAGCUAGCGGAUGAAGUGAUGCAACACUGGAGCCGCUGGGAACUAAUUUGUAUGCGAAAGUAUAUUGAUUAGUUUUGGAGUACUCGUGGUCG
# run.conditions: 37 °C
endpoint: self-splicing fitness (ln)
Enter a number only.

Lookup: Which measured self-splicing fitness (ln) value corresponds to AAUCAGCAAUAUUACGACCG ?
Found: -0.795

Lookup: Which measured self-splicing fitness (ln) value corresponds to GAGCAGCAAUAUUACGCGUG ?
Found: -1.66

Lookup: Which measured self-splicing fitness (ln) value corresponds to UACAAGCAAUAUUACGCGGG ?
Found: -1.25
